Ref: patent US8178506B2

- Tested on: Glut4
- experiment.notes: Glut4 mRNA expression in adipocytes (real-time PCR)
- Format: cell-based, human
- stated.conditions: differentiating adipocytes transfected with oligomeric compound; Table 75
In the oligonucleotide strings, read from the 5' end, every base follows the letter of its sugar. An asterisk marks phosphorothioate; unmarked linkages are phosphodiester. Other units and linkages are bracketed, terminal groups are in braces. A string of capitals states the bases alone. e = 2'-O-(2-methoxyethyl) (MOE); [5mC] = 5-methylcytosine
endpoint.label: GLUT4 mRNA

Solved cases below.
substance	assayed.system	GLUT4 mRNA
340360 (antisense GCAACUUAGUAAUGUGCAAUA; all 2'-MOE, all phosphorothioate, methylation of C and T or U not given here) [compound 340360]	Glut4	91 percentage of untreated control (UTC)
328107 (antisense e[5mC]*eT*eG*eT*eG*eA*e[5mC]*eT*eT*e[5mC]*eT*e[5mC]*eT*eA*eT*e[5mC]*eT*eG*e[5mC]*e[5mC]*eT) [compound 328107]	Glut4	52 percentage of untreated control (UTC)
348124 (CACAAAUUCGGUUCUACAGGGUA; anti-miR; all 2'-MOE, all phosphorothioate, methylation of C and T or U not given here) [compound 348124]	Glut4	41 percentage of untreated control (UTC)
327936 (antisense eA*e[5mC]*eA*eG*e[5mC]*eT*eG*eG*eT*eT*eG*eA*eA*eG*eG*eG*eG*eA*e[5mC]*e[5mC]*eA*eA) [compound 327936]	Glut4	6 percentage of untreated control (UTC)
344269 (antisense UAACCGAUUUCAAAUGGUGCUA; all 2'-MOE, all phosphorothioate, methylation of C and T or U not given here) [compound 344269]	Glut4	28 percentage of untreated control (UTC)
328115 (antisense eA*eG*eA*eA*eG*eG*eT*eG*eG*eG*eG*eA*eG*e[5mC]*eA*eG*e[5mC]*eG*eT*e[5mC]*eA) [compound 328115]	Glut4	84 percentage of untreated control (UTC)
327907 (antisense eA*eG*e[5mC]*e[5mC]*eT*eA*eT*e[5mC]*e[5mC]*eT*eG*eG*eA*eT*eT*eA*e[5mC]*eT*eT*eG*eA*eA) [compound 327907]	Glut4	6 percentage of untreated control (UTC)
344338 (antisense AUGCCCUUUUAACAUUGCACUG; all 2'-MOE, all phosphorothioate, methylation of C and T or U not given here) [compound 344338]	Glut4	66 percentage of untreated control (UTC)
328127 (antisense eA*eA*e[5mC]*eG*eA*eT*eA*eA*eA*eA*e[5mC]*eA*eT*eA*e[5mC]*eT*eT*eG*eT*e[5mC]*eA) [compound 328127]	Glut4	75 percentage of untreated control (UTC)

As a next step, examine the substance that follows.
[Q] Provide measured GLUT4 mRNA value, entry: 327916 (antisense eT*eG*eG*e[5mC]*eA*eT*eT*e[5mC]*eA*e[5mC]*e[5mC]*eG*e[5mC]*eG*eT*eG*e[5mC]*e[5mC]*eT*eT*eA*eA) [compound 327916]
[A] 51 percentage of untreated control (UTC)

---

Recorded % cells in cell cycle phase subG1 values for a group of substances are listed next.
- Tested on: T47D cells
- experiment.notes: Cell cycle assay in T47D cells
- Format: cell-based, human
- stated.conditions: 150 nM, 48 hours, relative to untreated control
In the oligonucleotide strings, read from the 5' end, every base follows the letter of its sugar. An asterisk marks phosphorothioate; unmarked linkages are phosphodiester. Other units and linkages are bracketed, terminal groups are in braces. A string of capitals states the bases alone. e = 2'-O-(2-methoxyethyl) (MOE); [5mC] = 5-methylcytosine; d = 2'-deoxy (DNA)
Field format: number, assumed %, no unit text.

Solved cases below.
substance	endpoint.label	assay.value
328403 (antisense eA*eG*eG*e[5mC]*e[5mC]*dT*dA*dT*dT*d[5mC]*d[5mC]*dT*dG*dT*dA*eG*e[5mC]*eA*eA*eA) [compound 328403]	% cells in cell cycle phase subG1	49
25690 (antisense eA*eT*e[5mC]*e[5mC]*e[5mC]*dT*dT*dT*d[5mC]*dT*dT*d[5mC]*d[5mC]*dG*d[5mC]*eA*eT*eG*eT*eG) [compound 25690]	% cells in cell cycle phase subG1	97

As a next step, examine the substance that follows.
[Q] Provide measured % cells in cell cycle phase subG1 value, entry: 328687 (eG*e[5mC]*eT*eT*e[5mC]*d[5mC]*d[5mC]*dA*dG*d[5mC]*dG*dG*d[5mC]*d[5mC]*dT*eA*eT*eA*eG*eT; antisense) [compound 328687]
[A] 142
